Reference source: patent US9801901B2

Tested on: Pseudomonas aeruginosa (MDR 301, PSA, V2)
Experiment: MIC-assay, Mueller-Hinton broth with G-block alginate, 384-well, OD600
Details: Pseudomonas aeruginosa, Table 8; V2; G-block (OligoCF-5/20) 0%
RECORDED ENDPOINT: MIC (µg/mL)

INSERT INTO assay_data (structure_smiles, prefix_operator, observed_measurement) VALUES
  ('CC[C@H]1OC(=O)[C@H](C)[C@@H](O[C@H]2C[C@@](C)(OC)[C@@H](O)[C@H](C)O2)[C@H](C)[C@@H](O[C@@H]2O[C@H](C)C[C@H](N(C)C)[C@H]2O)[C@](C)(O)C[C@@H](C)C(=O)[C@H](C)[C@@H](O)[C@]1(C)O', '>', 512),
  ('C[C@@H](O)[C@H]1C(=O)N2C(C(=O)O)=C(SCCN=CN)C[C@H]12', '=', 256),
  ('CC[C@H]1OC(=O)[C@H](C)[C@@H](O[C@H]2C[C@@](C)(OC)[C@@H](O)[C@H](C)O2)[C@H](C)[C@@H](O[C@@H]2O[C@H](C)C[C@H](N(C)C)[C@H]2O)[C@](C)(O)C[C@@H](C)[C@@H]2N[C@@H](COCCOC)O[C@H]([C@H]2C)[C@]1(C)O', '>', 512),
  ('CC(C)(O/N=C(\C(=O)N[C@@H]1C(=O)N2C(C(=O)[O-])=C(C[n+]3ccccc3)CS[C@H]12)c1csc(N)n1)C(=O)O', '=', 0.5),
  ('CC[C@H]1OC(=O)[C@H](C)[C@@H](O[C@H]2C[C@@](C)(OC)[C@@H](O)[C@H](C)O2)[C@H](C)[C@@H](O[C@@H]2O[C@H](C)C[C@H](N(C)C)[C@H]2O)[C@](C)(O)C[C@@H](C)/C(=N\OCOCCOC)[C@H](C)[C@@H](O)[C@]1(C)O', '>', 512),
  ('CN(C)[C@@H]1C(O)=C(C(N)=O)C(=O)[C@@]2(O)C(O)=C3C(=O)c4c(O)cccc4[C@@](C)(O)[C@H]3[C@H](O)[C@@H]12', '=', 16);

###

Test system: Acinetobacter lwoffii (Egypt, V10)
Assay: MIC-assay, Mueller-Hinton broth with G-block alginate, 384-well, OD600
Details: Table 9, G-block (OligoCF-5/20) 0%
# label = y if MIC < 1 µg/mL else n

INSERT INTO assay_data (molecule, assigned_class) VALUES
  ('CC[C@H]1OC(=O)[C@H](C)[C@@H](O[C@H]2C[C@@](C)(OC)[C@@H](O)[C@H](C)O2)[C@H](C)[C@@H](O[C@@H]2O[C@H](C)C[C@H](N(C)C)[C@H]2O)[C@](C)(O)C[C@@H](C)[C@@H]2N[C@@H](COCCOC)O[C@H]([C@H]2C)[C@]1(C)O [Dirithromycin]', 'y'),
  ('CC[C@H]1OC(=O)[C@H](C)[C@@H](O[C@H]2C[C@@](C)(OC)[C@@H](O)[C@H](C)O2)[C@H](C)[C@@H](O[C@@H]2O[C@H](C)C[C@H](N(C)C)[C@H]2O)[C@](C)(O)C[C@@H](C)CN(C)[C@H](C)[C@@H](O)[C@]1(C)O [Azithromycin]', 'y'),
  ('O=C(O)c1cn(C2CC2)c2cc(N3CCNCC3)c(F)cc2c1=O [Ciprofloxacin]', 'y'),
  ('C[C@H]1[C@H](NC(=O)/C(=N\OC(C)(C)C(=O)O)c2csc(N)n2)C(=O)N1S(=O)(=O)O [Aztreonam]', 'n'),
  ('CC[C@H]1OC(=O)[C@H](C)[C@@H](O[C@H]2C[C@@](C)(OC)[C@@H](O)[C@H](C)O2)[C@H](C)[C@@H](O[C@@H]2O[C@H](C)C[C@H](N(C)C)[C@H]2O)[C@](C)(O)C[C@@H](C)/C(=N\OCOCCOC)[C@H](C)[C@@H](O)[C@]1(C)O [Roxithromycin]', 'n'),
  ('CN(C)[C@@H]1C(O)=C(C(N)=O)C(=O)[C@@]2(O)C(O)=C3C(=O)c4c(O)cccc4[C@@](C)(O)[C@H]3[C@H](O)[C@@H]12 [Oxytetracycline]', 'y'),
  ('CC(C)(O/N=C(\C(=O)N[C@@H]1C(=O)N2C(C(=O)[O-])=C(C[n+]3ccccc3)CS[C@H]12)c1csc(N)n1)C(=O)O [Ceftazidime]', 'n');

###

System: Pseudomonas aeruginosa MDR 301 from Poland (V2)
Assay: MIC assay, CAMHB with alginate oligomer, no visible growth
Format: cell-based
Conditions: Pseudomonas aeruginosa, Table 1; V2 MDR 301 PA; OligoCF-5/20 +10% G; read-out: MIC
RECORDED ENDPOINT: MIC (µg/mL)

INSERT INTO assay_data (structure_smiles, assayed_system, observed_measurement) VALUES
  ('O=C(O)c1cn(C2CC2)c2cc(N3CCNCC3)c(F)cc2c1=O', 'Pseudomonas aeruginosa MDR 301 from Poland (V2)', 8),
  ('CC(C)(O/N=C(\C(=O)N[C@@H]1C(=O)N2C(C(=O)[O-])=C(C[n+]3ccccc3)CS[C@H]12)c1csc(N)n1)C(=O)O', 'Pseudomonas aeruginosa MDR 301 from Poland (V2)', 4),
  ('C[C@H]1[C@H](NC(=O)/C(=N\OC(C)(C)C(=O)O)c2csc(N)n2)C(=O)N1S(=O)(=O)O', 'Pseudomonas aeruginosa MDR 301 from Poland (V2)', 8),
  ('CC[C@H]1OC(=O)[C@H](C)[C@@H](O[C@H]2C[C@@](C)(OC)[C@@H](O)[C@H](C)O2)[C@H](C)[C@@H](O[C@@H]2O[C@H](C)C[C@H](N(C)C)[C@H]2O)[C@](C)(O)C[C@@H](C)CN(C)[C@H](C)[C@@H](O)[C@]1(C)O', 'Pseudomonas aeruginosa MDR 301 from Poland (V2)', 16);

###

As shown below, each of these compounds has a reported MIC value.
Test system: V22 6056 Acinetobacter
Assay: MIC assay, CAMHB with alginate oligomer, no visible growth
Assay type: cell-based, Acinetobacter lwoffii
Settings: Table 5; V22 MDR Acin. lwoff; OligoCF-5/20 +6% G
Marks after values point to notes of the source that are not given here.
RECORDED ENDPOINT: MIC

INSERT INTO measurements (structure_smiles, observed_measurement) VALUES
  ('CC(C)(O/N=C(\C(=O)N[C@@H]1C(=O)N2C(C(=O)[O-])=C(C[n+]3ccccc3)CS[C@H]12)c1csc(N)n1)C(=O)O', '4^† μg/ml'),
  ('CC[C@H]1OC(=O)[C@H](C)[C@@H](O[C@H]2C[C@@](C)(OC)[C@@H](O)[C@H](C)O2)[C@H](C)[C@@H](O[C@@H]2O[C@H](C)C[C@H](N(C)C)[C@H]2O)[C@](C)(O)C[C@@H](C)CN(C)[C@H](C)[C@@H](O)[C@]1(C)O', '<0.25 µg/mL'),
  ('CN(C)[C@@H]1C(O)=C(C(N)=O)C(=O)[C@@]2(O)C(O)=C3C(=O)c4c(O)cccc4[C@@](C)(O)[C@H]3[C@H](O)[C@@H]12', '2 µg/mL');

###

Test system: Acinetobacter lwoffii (6056, V22)
Assay: MIC-assay, Mueller-Hinton broth with G-block alginate, 384-well, OD600
Details: Table 9, G-block (OligoCF-5/20) 0%
RECORDED ENDPOINT: MIC (µg/mL)

INSERT INTO results (compound, recorded_endpoint, prefix_operator, observed_measurement) VALUES
  ('CC[C@H]1OC(=O)[C@H](C)[C@@H](O[C@H]2C[C@@](C)(OC)[C@@H](O)[C@H](C)O2)[C@H](C)[C@@H](O[C@@H]2O[C@H](C)C[C@H](N(C)C)[C@H]2O)[C@](C)(O)C[C@@H](C)[C@@H]2N[C@@H](COCCOC)O[C@H]([C@H]2C)[C@]1(C)O [Dirithromycin]', 'MIC', '<', 2),
  ('CC(C)(O/N=C(\C(=O)N[C@@H]1C(=O)N2C(C(=O)[O-])=C(C[n+]3ccccc3)CS[C@H]12)c1csc(N)n1)C(=O)O [Ceftazidime]', 'MIC', '=', 8),
  ('C[C@@H](O)[C@H]1C(=O)N2C(C(=O)O)=C(SCCN=CN)C[C@H]12 [Imipenem]', 'MIC', '=', 2),
  ('CC[C@H]1OC(=O)[C@H](C)[C@@H](O[C@H]2C[C@@](C)(OC)[C@@H](O)[C@H](C)O2)[C@H](C)[C@@H](O[C@@H]2O[C@H](C)C[C@H](N(C)C)[C@H]2O)[C@](C)(O)C[C@@H](C)/C(=N\OCOCCOC)[C@H](C)[C@@H](O)[C@]1(C)O [Roxithromycin]', 'MIC', '=', 4),
  ('C[C@H]1[C@H](NC(=O)/C(=N\OC(C)(C)C(=O)O)c2csc(N)n2)C(=O)N1S(=O)(=O)O [Aztreonam]', 'MIC', '=', 64),
  ('CC[C@H]1OC(=O)[C@H](C)[C@@H](O[C@H]2C[C@@](C)(OC)[C@@H](O)[C@H](C)O2)[C@H](C)[C@@H](O[C@@H]2O[C@H](C)C[C@H](N(C)C)[C@H]2O)[C@](C)(O)C[C@@H](C)C(=O)[C@H](C)[C@@H](O)[C@]1(C)O [Erythromycin]', 'MIC', '<', 2),
  ('CN(C)[C@@H]1C(O)=C(C(N)=O)C(=O)[C@@]2(O)C(O)=C3C(=O)c4c(O)cccc4[C@@](C)(O)[C@H]3[C@H](O)[C@@H]12 [Oxytetracycline]', 'MIC', '<', 2),
  ('CC[C@H]1OC(=O)[C@H](C)[C@@H](O[C@H]2C[C@@](C)(OC)[C@@H](O)[C@H](C)O2)[C@H](C)[C@@H](O[C@@H]2O[C@H](C)C[C@H](N(C)C)[C@H]2O)[C@](C)(O)C[C@@H](C)CN(C)[C@H](C)[C@@H](O)[C@]1(C)O [Azithromycin]', 'MIC', '<', 2),
  ('O=C(O)c1cn(C2CC2)c2cc(N3CCNCC3)c(F)cc2c1=O [Ciprofloxacin]', 'MIC', '<', 2);
